Would you kindly list MIC K. pneumoniae NCTC418, full MH at pH 7.4 for each of these molecules?
Tested on: K. pneumoniae NCTC418
Settings: NCTC418, 4 h, pH 7.4
Where a SMILES comes first, the peptide text is derived from it. [ ]: non-standard residue; d: D form. Nleu = CC(C)CNCC(=O)O; Nlys = NCCCCNCC(=O)O

CC(C)C[C@H](NC(=O)CN(CC(C)C)C(=O)[C@H](CCCCN)NC(=O)CNCCCCN)C(=O)N(CCCCN)CC(=O)N[C@@H](CC(C)C)C(=O)N(CC(=O)N[C@@H](CCCCN)C(=O)N(CC(=O)N[C@@H](CC(C)C)C(=O)N(CC(N)=O)CC(C)C)CC(C)C)CC(C)C [EB10, kKlLkLlKlLl] (H-[Nlys]K[Nleu]L[Nlys]L[Nleu]K[Nleu]L[Nleu]-NH2) = >32 ug/mL
CC(C)C[C@H](NC(=O)CN(CC(C)C)C(=O)[C@H](CC(C)C)NC(=O)CN(CCCCN)C(=O)[C@H](CC(C)C)NC(=O)CN(CC(C)C)C(=O)[C@H](CCCCN)NC(=O)CN(CC(C)C)C(=O)[C@H](CC(C)C)NC(=O)CN(CCCCN)C(=O)[C@@H](N)CCCCN)C(N)=O [EB9, KkLlKlLkLlL] (H-K[Nlys]L[Nleu]K[Nleu]L[Nlys]L[Nleu]L-NH2) = >32 ug/mL

Continue with the molecule presented below.
Lookup result for CC(C)C[C@H](NC(=O)CN(CCCCN)C(=O)[C@H](CC(C)C)NC(=O)[C@H](CC(C)C)NC(=O)[C@H](CCCCN)NC(=O)[C@H](CC(C)C)NC(=O)[C@H](CC(C)C)NC(=O)[C@H](CCCCN)NC(=O)CNCCCCN)C(=O)N[C@@H](CC(C)C)C(=O)N(CC(N)=O)CC(C)C [EB2, kKLLKLLkLLl] (H-[Nlys]KLLKLL[Nlys]LL[Nleu]-NH2) ; measured MIC K. pneumoniae NCTC418, full MH at pH 7.4: >32 ug/mL

###

Assay: Circular dichroism, α-helical content
Assay type: physicochemical
Conditions: 0.1 mg/mL, 10 mM phosphate buffer pH 7.4, 5 mM DPC; DichroWeb, Contin-LL
Where a SMILES comes first, the peptide text is derived from it. [ ]: non-standard residue; d: D form. Nleu = CC(C)CNCC(=O)O; Nlys = NCCCCNCC(=O)O
Mark 1.0 for reported CD %α with 5 mM DPC of 9% or greater; mark 0.0 for anything smaller.

CC(C)CN(CC(N)=O)C(=O)CN(CC(C)C)C(=O)CN(CC(C)C)C(=O)CN(CCCCN)C(=O)CN(CC(C)C)C(=O)CN(CC(C)C)C(=O)CN(CCCCN)C(=O)CN(CC(C)C)C(=O)CN(CC(C)C)C(=O)CN(CCCCN)C(=O)CNCCCCN [EB11, kkllkllklll] (H-[Nlys][Nlys][Nleu][Nleu][Nlys][Nleu][Nleu][Nlys][Nleu][Nleu][Nleu]-NH2) = 0.0

Determine whether measured CD %α with 5 mM DPC meets or exceeds 9% for CC(C)C[C@H](NC(=O)[C@H](CC(C)C)NC(=O)[C@H](CCCCN)NC(=O)[C@@H](N)CCCCN)C(=O)N[C@@H](CCCCN)C(=O)N[C@@H](CC(C)C)C(=O)N[C@@H](CC(C)C)C(=O)N[C@@H](CCCCN)C(=O)N(CC(=O)N(CC(=O)N(CC(N)=O)CC(C)C)CC(C)C)CC(C)C [EB3] (H-KKLLKLLK[Nleu][Nleu][Nleu]-NH2)
1.0

Determine whether measured CD %α with 5 mM DPC meets or exceeds 9% for CC(C)C[C@H](NC(=O)CN(CC(C)C)C(=O)[C@H](CC(C)C)NC(=O)CN(CCCCN)C(=O)[C@H](CC(C)C)NC(=O)CN(CC(C)C)C(=O)[C@H](CCCCN)NC(=O)CN(CC(C)C)C(=O)[C@H](CC(C)C)NC(=O)CN(CCCCN)C(=O)[C@@H](N)CCCCN)C(N)=O [EB9, KkLlKlLkLlL] (H-K[Nlys]L[Nleu]K[Nleu]L[Nlys]L[Nleu]L-NH2)
1.0

Determine whether measured CD %α with 5 mM DPC meets or exceeds 9% for CC(C)C[C@H](NC(=O)[C@H](CCCCN)NC(=O)CNCCCCN)C(=O)N[C@@H](CC(C)C)C(=O)N[C@@H](CCCCN)C(=O)N[C@@H](CC(C)C)C(=O)N[C@@H](CC(C)C)C(=O)N[C@@H](CCCCN)C(=O)N[C@@H](CC(C)C)C(=O)N[C@@H](CC(C)C)C(=O)N(CC(N)=O)CC(C)C [EB1] (H-[Nlys]KLLKLLKLL[Nleu]-NH2; N-terminus assumed)
1.0

###

Test system: K. pneumoniae NCTC418
Settings: NCTC418, 4 h, pH 7.4
Where a SMILES comes first, the peptide text is derived from it. [ ]: non-standard residue; d: D form. Nleu = CC(C)CNCC(=O)O
measurement_kind: MIC K. pneumoniae NCTC418, full MH at pH 7.4

Lookup result for CC(C)CN(CC(N)=O)C(=O)CN(CC(C)C)C(=O)CN(CC(C)C)C(=O)[C@H](CCCCN)NC(=O)CN(CC(C)C)C(=O)CN(CC(C)C)C(=O)[C@H](CCCCN)NC(=O)CN(CC(C)C)C(=O)CN(CC(C)C)C(=O)[C@H](CCCCN)NC(=O)[C@@H](N)CCCCN [EB8, KKllKllKlll] (H-KK[Nleu][Nleu]K[Nleu][Nleu]K[Nleu][Nleu][Nleu]-NH2) ; measured MIC K. pneumoniae NCTC418, full MH at pH 7.4: >32 ug/mL

###

Test system: human red blood cells (hRBC)
Test: Minimum hemolytic concentration (MHC)
Assay type: cell-based
Where a SMILES comes first, the peptide text is derived from it. [ ]: non-standard residue; d: D form. Nlys = NCCCCNCC(=O)O
measurement_kind: MHC (µg/mL)
Give bare numbers, in µg/mL.

CC(C)C[C@H](NC(=O)[C@H](CC(C)C)NC(=O)[C@H](CC(C)C)NC(=O)[C@H](CCCCN)NC(=O)[C@H](CC(C)C)NC(=O)[C@H](CC(C)C)NC(=O)CN(CCCCN)C(=O)[C@H](CC(C)C)NC(=O)[C@H](CC(C)C)NC(=O)CN(CCCCN)C(=O)CNCCCCN)C(N)=O [EB6, kkLLkLLKLLL] (H-[Nlys][Nlys]LL[Nlys]LLKLLL-NH2) = 250

Continue with the compound presented below.
Lookup result for CC(C)C[C@H](NC(=O)[C@H](CC(C)C)NC(=O)[C@H](CC(C)C)NC(=O)[C@@H](CCCCN)NC(=O)[C@H](CC(C)C)NC(=O)[C@H](CC(C)C)NC(=O)[C@@H](CCCCN)NC(=O)[C@H](CC(C)C)NC(=O)[C@H](CC(C)C)NC(=O)[C@@H](CCCCN)NC(=O)[C@H](N)CCCCN)C(N)=O [ln69, kkLLkLLkLLL, reference compound] (H-[dK][dK]LL[dK]LL[dK]LLL-NH2) ; measured MHC: 1000

###

System: E. coli W3110
Settings: diluted MH ([…] MH, pH 8.5) per Table 1 footnote b, 16–20 h at 37 °C
Where a SMILES comes first, the peptide text is derived from it. [ ]: non-standard residue; d: D form. Nleu = CC(C)CNCC(=O)O; Nlys = NCCCCNCC(=O)O
Would you kindly list MIC E. coli W3110 […] for each of these molecules?
Give bare numbers, in µg/mL.

CC(C)C[C@H](NC(=O)[C@H](CC(C)C)NC(=O)[C@H](CC(C)C)NC(=O)[C@H](CCCCN)NC(=O)[C@H](CC(C)C)NC(=O)[C@H](CC(C)C)NC(=O)CN(CCCCN)C(=O)[C@H](CC(C)C)NC(=O)[C@H](CC(C)C)NC(=O)CN(CCCCN)C(=O)CNCCCCN)C(N)=O [EB6, kkLLkLLKLLL] (H-[Nlys][Nlys]LL[Nlys]LLKLLL-NH2) = 2
CC(C)C[C@H](NC(=O)[C@H](CC(C)C)NC(=O)[C@H](CC(C)C)NC(=O)CN(CCCCN)C(=O)[C@H](CC(C)C)NC(=O)[C@H](CC(C)C)NC(=O)CN(CCCCN)C(=O)[C@H](CC(C)C)NC(=O)[C@H](CC(C)C)NC(=O)CN(CCCCN)C(=O)CNCCCCN)C(N)=O [EB7, kkLLkLLkLLL] (H-[Nlys][Nlys]LL[Nlys]LL[Nlys]LLL-NH2) = 4

Continue with the molecule presented below.
The observed MIC E. coli W3110 […] for CC(C)CN(CC(N)=O)C(=O)CN(CC(C)C)C(=O)CN(CC(C)C)C(=O)[C@H](CCCCN)NC(=O)CN(CC(C)C)C(=O)CN(CC(C)C)C(=O)[C@H](CCCCN)NC(=O)CN(CC(C)C)C(=O)CN(CC(C)C)C(=O)[C@H](CCCCN)NC(=O)[C@@H](N)CCCCN [EB8, KKllKllKlll] (H-KK[Nleu][Nleu]K[Nleu][Nleu]K[Nleu][Nleu][Nleu]-NH2) when tested with E. coli W3110 stands at 8
